Target: PDE4D2 (Homo sapiens, UniProt Q08499)
Construct: purchased BPS bioscience
Sequence (Q08499 303-809 limits assumed): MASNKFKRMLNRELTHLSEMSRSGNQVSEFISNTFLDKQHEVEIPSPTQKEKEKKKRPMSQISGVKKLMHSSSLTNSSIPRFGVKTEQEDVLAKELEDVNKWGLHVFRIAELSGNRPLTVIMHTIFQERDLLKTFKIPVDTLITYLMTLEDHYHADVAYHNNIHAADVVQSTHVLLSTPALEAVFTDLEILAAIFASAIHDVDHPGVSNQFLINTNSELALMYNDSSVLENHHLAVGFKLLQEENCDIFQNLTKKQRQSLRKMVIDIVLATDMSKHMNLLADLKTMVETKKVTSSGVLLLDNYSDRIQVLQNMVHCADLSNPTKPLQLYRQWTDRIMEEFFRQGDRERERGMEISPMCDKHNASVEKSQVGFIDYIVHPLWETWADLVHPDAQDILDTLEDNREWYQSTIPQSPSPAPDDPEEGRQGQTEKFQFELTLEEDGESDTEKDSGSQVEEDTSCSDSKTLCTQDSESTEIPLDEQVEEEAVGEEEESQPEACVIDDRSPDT
Assay: In vitro PDE4D2 enzyme inhibitory activity (AMP-Glo), reported as PDE4D2/PDE4B2 selectivity
Type: biochemical
Conditions: Ratio of IC50 value of PDE4D2 enzyme inhibition/IC50 value of PDE4B2 enzyme inhibition

- compound: "[2H]C([2H])([2H])OC1(c2ccc(Cl)cc2)CN(c2nc3c(c(NC4(CO)CCC4)n2)[S+]([O-])CC3)C1 (racemic)"
  PDE4D2/PDE4B2 selectivity: "A (5<A≤10)"
- compound: "COC1(c2ccc(OC(F)F)cc2)CN(c2nc3c(c(NC4(CO)CCC4)n2)[S+]([O-])CC3)C1 (racemic)"
  PDE4D2/PDE4B2 selectivity: "B (2<B≤5)"
- compound: "[O-][S+]1CCc2nc(N3CC=C(c4ccc(OC(F)F)cc4)C3)nc(NC3(CO)CCC3)c21 (racemic)"
  PDE4D2/PDE4B2 selectivity: "B (2<B≤5)"
- compound: "COC1(c2ccc(Cl)c(F)c2)CN(c2nc3c(c(NC4(CO)CCC4)n2)[S+]([O-])CC3)C1 (racemic)"
  PDE4D2/PDE4B2 selectivity: "A (5<A≤10)"
- compound: "[O-][S+]1CCc2nc(N3Cc4ccc(OC(F)F)cc4C3)nc(NC3(CO)CCC3)c21 (racemic)"
  PDE4D2/PDE4B2 selectivity: "B (2<B≤5)"
- compound: "COc1ccc(C2(OC)CN(c3nc4c(c(NC5CCOCC5)n3)[S+]([O-])CC4)C2)cc1 (racemic)"
  PDE4D2/PDE4B2 selectivity: "B (2<B≤5)"
- compound: "COc1cc(C2(O)CN(c3nc4c(c(NC5(CO)CCC5)n3)[S+]([O-])CC4)C2)ccc1Cl (racemic)"
  PDE4D2/PDE4B2 selectivity: "B (2<B≤5)"
- compound: "COC1(c2ccc(N3CCCC3)cc2)CN(c2nc3c(c(NC4(CO)CCC4)n2)[S+]([O-])CC3)C1 (racemic)"
  PDE4D2/PDE4B2 selectivity: "B (2<B≤5)"
- compound: "COC1(c2ccc(Cl)cc2)CN(c2nc3c(c(NC4(CO)CCC4)n2)[S+]([O-])CC3)C1 (racemic)"
  PDE4D2/PDE4B2 selectivity: "A (5<A≤10)"
- compound: "COC1(c2ccc(Cl)c(F)c2)CN(c2nc3c(c(NC4CCOCC4)n2)[S+]([O-])CC3)C1 (racemic)"
  PDE4D2/PDE4B2 selectivity: "B (2<B≤5)"
- compound: "[2H]C([2H])([2H])OC1(c2ccc(Cl)cc2)CN(c2nc3c(c(NC4CCOCC4)n2)[S+]([O-])CC3)C1 (racemic)"
  PDE4D2/PDE4B2 selectivity: "B (2<B≤5)"
- compound: "COC1(c2ccc(Cl)cc2)CN(c2nc3c(c(NC4CCOCC4)n2)[S+]([O-])CC3)C1 (racemic)"
  PDE4D2/PDE4B2 selectivity: "B (2<B≤5)"
- compound: "COC1(c2ccc(OCC3CC3)cc2)CN(c2nc3c(c(NC4(CO)CCC4)n2)[S+]([O-])CC3)C1 (racemic)"
  PDE4D2/PDE4B2 selectivity: "B (2<B≤5)"

Where these numbers come from: patent EP4674852A1
